// provenance: patent US5866588A

Molecular target: histamine-1 receptors on Hela-S3 cells (Homo sapiens, UniProt P35367)
Construct: histamine-1 receptors on Hela-S3 cells (American Type Culture Collection); host or cells: HeLa-S3 cells (intact cell suspension)
Sequence (P35367 whole entry): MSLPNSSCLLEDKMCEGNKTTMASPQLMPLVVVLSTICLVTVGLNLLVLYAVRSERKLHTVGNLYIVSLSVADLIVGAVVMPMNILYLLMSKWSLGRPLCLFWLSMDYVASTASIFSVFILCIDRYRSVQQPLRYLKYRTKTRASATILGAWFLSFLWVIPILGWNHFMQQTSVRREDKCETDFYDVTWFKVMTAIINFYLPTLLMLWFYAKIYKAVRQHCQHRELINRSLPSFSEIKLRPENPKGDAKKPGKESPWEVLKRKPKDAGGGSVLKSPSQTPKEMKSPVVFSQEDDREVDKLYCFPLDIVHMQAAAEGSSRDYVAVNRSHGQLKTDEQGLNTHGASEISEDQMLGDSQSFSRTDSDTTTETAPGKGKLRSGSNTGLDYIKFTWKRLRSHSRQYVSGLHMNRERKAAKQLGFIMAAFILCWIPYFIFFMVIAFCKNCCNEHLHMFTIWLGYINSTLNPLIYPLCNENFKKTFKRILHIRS
Assay: Inhibition of [^3 H]-Pyrilamine Binding to Histamine-1 Receptors on Hela-S3 Cells
Conditions: 0.5 h; 1 μM test compound; [^3 H]-pyrilamine remaining specifically bound; 37° C., 30 minutes; read-out: % Specific Binding at 1 μM
readout: activity at 1 µM (%)
// note: answer is a bare numeric in %

IN: Give me measured activity at 1 µM, please, for this compound: CCCCN(C/C=C/c1cccc(/C(=C/CN2CCCC2)c2ccc(C)cc2)n1)C(=O)c1ccc(Cn2c(C)nc3cnccc32)cc1 [Example 22]
OUT: 31

IN: Specify measured activity at 1 µM for CCCN(C/C=C/c1cccc(/C(=C/CN2CCCC2)c2ccc(C)cc2)n1)C(=O)c1ccc(Cn2c(C)nc3cnccc32)cc1 [Example 16] .
OUT: 30

IN: Tell me measured activity at 1 µM for Cc1ccc(/C(=C\CN2CCCC2)c2cccc(/C=C/CN(CCC(C)C)C(=O)c3ccc(Cn4c(C)nc5cnccc54)cc3)n2)cc1 [Example 6] please.
OUT: 29

IN: Check the records and state activity at 1 µM for CCN(C/C=C/c1cccc(/C(=C/CN2CCCC2)c2ccc(C)cc2)n1)C(=O)c1ccc(Cn2c(C)nc3cnccc32)cc1 [Example 13]
OUT: 30

IN: Report activity at 1 µM, nothing else, for this compound: Cc1ccc(/C(=C\CN2CCCC2)c2cccc(/C=C/CN(C)C(=O)c3ccc(-n4c(C)nc5cnccc54)cc3)n2)cc1 [Example 26]
OUT: 26

IN: Quick one: give measured activity at 1 µM for Cc1ccc(/C(=C\CN2CCCC2)c2cccc(/C=C/COC(=O)c3ccc(Cn4c(C)nc5cnccc54)cc3)n2)cc1 [Example 1]
OUT: 16

----------
Provide the recorded activity at 1 µM for the entries that follow.
Molecular target: histamine-1 receptors on Hela-S3 cells (Homo sapiens, UniProt P35367)
Construct: histamine-1 receptors on Hela-S3 cells (American Type Culture Collection); host or cells: HeLa-S3 cells (intact cell suspension)
Experiment: Inhibition of [^3 H]-Pyrilamine Binding to Histamine-1 Receptors on Hela-S3 Cells
Conditions: 0.5 h; 1 μM test compound; [^3 H]-pyrilamine remaining specifically bound; 37° C., 30 minutes; read-out: % Specific Binding at 1 μM
Answers without a unit are incomplete; give the number and then its unit.

IN: Check histamine-1 receptors on Hela-S3 cells (Homo sapiens, UniProt P35367) data and give activity at 1 µM for `Cc1ccc(/C(=C\CN2CCCC2)c2cccc(/C=C/CN(C(=O)c3ccc(Cn4c(C)nc5cnccc54)cc3)C(C)(C)C)n2)cc1` .
OUT: 62%

IN: Write activity at 1 µM of Cc1ccc(/C(=C\CN2CCCC2)c2cccc(/C=C/CN(C(=O)c3ccc(Cn4c(C)nc5cnccc54)cc3)C3CC(C)CC(C)C3)n2)cc1 (centres unmarked) ; system used: histamine-1 receptors on Hela-S3 cells (Homo sapiens, UniProt P35367)
OUT: 60%

IN: For histamine-1 receptors on Hela-S3 cells (Homo sapiens, UniProt P35367), give activity at 1 µM of the listed compound: `Cc1ccc(/C(=C\CN2CCCC2)c2cccc(CCCOC(=O)c3ccc(Cn4c(C)nc5cnccc54)cc3)n2)cc1`
OUT: 15%

IN: Name the value of activity at 1 µM reported for `Cc1ccc(/C(=C\CN2CCCC2)c2cccc(/C=C/CN(CC(C)C)C(=O)c3ccc(Cn4c(C)nc5cnccc54)cc3)n2)cc1` when tested on histamine-1 receptors on Hela-S3 cells (Homo sapiens, UniProt P35367).
OUT: 40%

IN: For histamine-1 receptors on Hela-S3 cells (Homo sapiens, UniProt P35367), give activity at 1 µM of the listed compound: `Cc1ccc(/C(=C\CN2CCCC2)c2cccc(/C=C/CN(C(=O)c3ccc(Cn4c(C)nc5cnccc54)cc3)C3CCCCC3)n2)cc1`
OUT: 42%

IN: Please respond with reported activity at 1 µM (system histamine-1 receptors on Hela-S3 cells (Homo sapiens, UniProt P35367)) for `Cc1ccc(/C(=C\CN2CCCC2)c2cccc(/C=C/CN(C(=O)c3ccc(Cn4c(C)nc5cnccc54)cc3)C(C)C)n2)cc1` .
OUT: 64%

IN: Param request: activity at 1 µM | system histamine-1 receptors on Hela-S3 cells (Homo sapiens, UniProt P35367) | item `Cc1ccc(/C(=C\CN2CCCC2)c2cccc(CCCN(C(=O)c3ccc(Cn4c(C)nc5cnccc54)cc3)C3CCCCC3)n2)cc1`
OUT: 58%

IN: Give reported activity at 1 µM for `Cc1ccc(/C(=C\CN2CCCC2)c2cccc(/C=C/CN(C)C(=O)c3ccc(Cn4c(C)nc5cnccc54)cc3)n2)cc1` (histamine-1 receptors on Hela-S3 cells (Homo sapiens, UniProt P35367))
OUT: 19%

IN: Report value only: activity at 1 µM, histamine-1 receptors on Hela-S3 cells (Homo sapiens, UniProt P35367), CCC(C)N(C/C=C/c1cccc(/C(=C/CN2CCCC2)c2ccc(C)cc2)n1)C(=O)c1ccc(Cn2c(C)nc3cnccc32)cc1 (racemic)
OUT: 63%

IN: Lab note: histamine-1 receptors on Hela-S3 cells (Homo sapiens, UniProt P35367) assay, enter activity at 1 µM for `Cc1ccc(/C(=C\CN2CCCC2)c2cccc(/C=C/CN(C(=O)c3ccc(Cn4c(C)nc5cnccc54)cc3)C3CCCC3)n2)cc1` here
OUT: 34%

IN: Fetch value of activity at 1 µM on histamine-1 receptors on Hela-S3 cells (Homo sapiens, UniProt P35367) for `Cc1ccc(/C(=C\CN2CCCC2)c2cccc(/C=C/CNC(=O)c3ccc(Cn4c(C)nc5cnccc54)cc3)n2)cc1` .
OUT: 16%

----------
System: PAF Induced Bronoconstriction
Test: PAF Induced Bronoconstriction in the Anaesthetised Guinea Pig
Assay type: in vivo, guinea pig (Dunkin-Hartley)
Details: Cavia porcellus, po, 1 h; p.o.; PAF 100 ngkg^-1 i.v. bolus one hour after dosing; read-out: ED50 (PAF induced bronchoconstriction)
Could you please report measured ED50 for the items listed next?
Note: unit mg/kg is implicit; provide only the numeric part.

IN: Could you please provide reported ED50 for `Cc1nc2cnccc2n1Cc1ccc(C(=O)N(C/C=C/c2cccc(/C(=C/CN3CCCC3)c3ccc(Cl)cc3)n2)C2CCCCC2)cc1` ? Thanks!
OUT: 4.2

IN: Consider the molecule `CCN(C/C=C/c1cccc(/C(=C/CN2CCCC2)c2ccc(C)cc2)n1)C(=O)c1ccc(Cn2c(C)nc3cnccc32)cc1` and give its recorded ED50.
OUT: 2.55

IN: Could you please provide reported ED50 for `CCCN(C/C=C/c1cccc(/C(=C/CN2CCCC2)c2ccc(C)cc2)n1)C(=O)c1ccc(Cn2c(C)nc3cnccc32)cc1` ? Thanks!
OUT: 1.55

IN: Tell us which ED50 value is on record for `Cc1ccc(/C(=C\CN2CCCC2)c2cccc(/C=C/CN(C(=O)c3ccc(Cn4c(C)nc5cnccc54)cc3)C3CCCCC3)n2)cc1`
OUT: 1.55

IN: # return recorded ED50 for entry `Cc1ccc(/C(=C\CN2CCCC2)c2cccc(/C=C/CN(C)C(=O)c3ccc(Cn4c(C)nc5cnccc54)cc3)n2)cc1`
OUT: 5.8
